biological target: BRG-1 (Homo sapiens, UniProt P51532); assay: ATPase catalytic activity assay of BRG-1 (ADP-Glo); format: biochemical; details: ATPase catalytic activity, ADP-Glo; read-out: BRG1 IC50 (μM)*
Sequence (P51532 whole entry): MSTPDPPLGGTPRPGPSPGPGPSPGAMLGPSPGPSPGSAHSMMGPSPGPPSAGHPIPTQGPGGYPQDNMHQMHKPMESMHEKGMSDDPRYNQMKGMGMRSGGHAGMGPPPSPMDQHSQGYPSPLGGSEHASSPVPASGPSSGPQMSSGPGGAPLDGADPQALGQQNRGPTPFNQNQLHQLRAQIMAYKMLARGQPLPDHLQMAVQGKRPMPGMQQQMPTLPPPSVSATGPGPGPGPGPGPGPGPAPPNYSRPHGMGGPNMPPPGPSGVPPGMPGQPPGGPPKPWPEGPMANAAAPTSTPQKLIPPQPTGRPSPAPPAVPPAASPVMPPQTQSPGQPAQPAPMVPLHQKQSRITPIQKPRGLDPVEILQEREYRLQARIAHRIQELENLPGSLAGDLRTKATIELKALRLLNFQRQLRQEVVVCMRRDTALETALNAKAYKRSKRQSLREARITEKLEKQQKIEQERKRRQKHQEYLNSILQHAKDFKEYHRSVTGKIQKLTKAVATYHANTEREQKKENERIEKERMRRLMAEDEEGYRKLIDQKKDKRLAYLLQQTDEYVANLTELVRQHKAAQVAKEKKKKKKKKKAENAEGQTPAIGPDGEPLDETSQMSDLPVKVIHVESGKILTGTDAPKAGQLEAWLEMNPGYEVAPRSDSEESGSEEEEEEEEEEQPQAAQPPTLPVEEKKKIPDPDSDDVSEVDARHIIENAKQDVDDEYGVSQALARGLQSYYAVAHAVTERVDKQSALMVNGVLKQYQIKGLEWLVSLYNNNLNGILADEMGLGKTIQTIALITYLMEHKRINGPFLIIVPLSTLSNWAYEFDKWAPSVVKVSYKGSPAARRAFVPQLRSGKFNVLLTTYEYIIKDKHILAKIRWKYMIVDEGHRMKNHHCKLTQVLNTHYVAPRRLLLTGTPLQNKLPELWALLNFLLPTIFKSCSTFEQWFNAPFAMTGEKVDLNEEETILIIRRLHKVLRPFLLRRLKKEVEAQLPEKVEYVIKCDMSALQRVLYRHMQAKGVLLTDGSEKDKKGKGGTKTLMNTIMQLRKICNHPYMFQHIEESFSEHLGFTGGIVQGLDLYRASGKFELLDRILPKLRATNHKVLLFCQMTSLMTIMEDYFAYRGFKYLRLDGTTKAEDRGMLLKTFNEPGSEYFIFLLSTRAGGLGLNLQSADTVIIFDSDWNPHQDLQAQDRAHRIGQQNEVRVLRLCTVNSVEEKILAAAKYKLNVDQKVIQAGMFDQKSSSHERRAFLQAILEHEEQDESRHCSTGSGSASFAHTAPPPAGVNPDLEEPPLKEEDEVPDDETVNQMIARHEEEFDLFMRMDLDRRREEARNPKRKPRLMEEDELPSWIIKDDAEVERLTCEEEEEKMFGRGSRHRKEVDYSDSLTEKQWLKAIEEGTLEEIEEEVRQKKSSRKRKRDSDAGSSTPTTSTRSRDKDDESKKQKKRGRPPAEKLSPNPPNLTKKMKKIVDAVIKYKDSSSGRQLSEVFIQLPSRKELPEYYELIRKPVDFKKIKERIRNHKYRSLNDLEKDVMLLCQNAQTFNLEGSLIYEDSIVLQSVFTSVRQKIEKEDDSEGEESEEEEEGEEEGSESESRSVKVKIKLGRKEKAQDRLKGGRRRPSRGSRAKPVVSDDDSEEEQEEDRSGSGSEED

[
  {
    "molecule": "Cc1cc(-c2cccc(-c3csc(NC(=O)CNC(=O)c4cccc(C(C)(C)CO)c4)n3)c2)nc(C)n1 [Compound 94]",
    "target_or_test_system": "BRG-1 (Homo sapiens, UniProt P51532)",
    "IC50": "< 0.1 µM"
  },
  {
    "molecule": "Cc1nccc(-c2cccc(-c3csc(NC(=O)CNC(=O)c4ccc5c(c4)[C@](C)(CO)CC5)n3)n2)n1",
    "target_or_test_system": "BRG-1 (Homo sapiens, UniProt P51532)",
    "IC50": "0.1 to 1 µM"
  },
  {
    "molecule": "O=C(CNC(=O)c1ccc2c(c1)S(=O)(=O)CCCC2)Nc1nc(-c2cccc(-c3ccncc3)c2)cs1",
    "target_or_test_system": "BRG-1 (Homo sapiens, UniProt P51532)",
    "IC50": "< 0.1 µM"
  },
  {
    "molecule": "C[C@@]1(C#N)COCc2ccc(C(=O)NCC(=O)Nc3nc(-c4cccc([C@]56CCOC[C@H]5C6)n4)cs3)cc21",
    "target_or_test_system": "BRG-1 (Homo sapiens, UniProt P51532)",
    "IC50": "0.1 to 1 µM"
  },
  {
    "molecule": "Cc1cc(-c2cccc(-c3csc(NC(=O)CNC(=O)c4ccc5c(c4)[C@](C)(CO)CC5)n3)c2)nc(C)n1",
    "target_or_test_system": "BRG-1 (Homo sapiens, UniProt P51532)",
    "IC50": "< 0.1 µM"
  },
  {
    "molecule": "C[C@@H]1CN(c2cccc(-c3csc(NC(=O)CNC(=O)c4cnc5c(c4)[C@](C)(C#N)CC5)n3)c2)C[C@H](C)O1",
    "target_or_test_system": "BRG-1 (Homo sapiens, UniProt P51532)",
    "IC50": "< 0.1 µM"
  },
  {
    "molecule": "COc1cccc(-c2csc(NC(=O)[C@H](C)NC(=O)c3ccc4c(c3)[C@](C)(F)COC4)n2)c1",
    "target_or_test_system": "BRG-1 (Homo sapiens, UniProt P51532)",
    "IC50": "0.1 to 1 µM"
  }
]

Sourced from patent US12685735B2
